B1: MBP–Hrp1p NLS [S. cerevisiae] / Kap104p [yeast (S. cerevisiae)] (parent)
chain 1: RDRNDRDRDYNHRSGGNHRRNGRGGRGGYNRRNNGYHPYNR
chain 2: MASTWKPAEDYVLQLATLLQNCMSPNPEIRNNAMEAMENFQLQPEFLNYLCYILIEGESDDVLKQHYSLQDLQNNRATAGMLLKNSMLGGNNLIKSNSHDLGYVKSNIIHGLYNSNNNLVSNVTGIVITTLFSTYYRQHRDDPTGLQMLYQLLELTSNGNEPSIKALSKIMEDSAQFFQLEWSGNTKPMEALLDSFFRFISNPNFSPVIRSESVKCINTVIPLQTQSFIVRLDKFLEIIFQLAQNDENDLVRAQICISFSFLLEFRPDKLVSHLDGIVQFMLHLITTVNEEKVAIEACEFLHAFATSPNIPEHILQPYVKDIVPILLSKMVYNEESIVLLEASNDDDAFLEDKDEDIKPIAPRIVKKKEAGNGEDADDNEDDDDDDDDEDGDVDTQWNLRKCSAATLDVMTNILPHQVMDIAFPFLREHLGSDRWFIREATILALGAMAEGGMKYFNDGLPALIPFLVEQLNDKWAPVRKMTCWTLSRFSPWILQDHTEFLIPVLEPIINTLMDKKKDVQEAAISSVAVFIENADSELVETLFYSQLLTSFDKCLKYYKKKNLIILYDAIGRFAEKCALDETAMQIILPPLIEKWALLSDSDKELWPLLECLSCVASSLGERFMPMAPEVYNRAFRILCHCVELEAKSHQDPTIVVPEKDFIITSLDLIDGLVQGLGAHSQDLLFPQGTKDLTILKIMLECLQDPVHEVRQSCFALLGDIVYFFNSELVIGNLEDFLKLIGTEIMHNDDSDGTPAVINAIWALGLISERIDLNTYIIDMSRIILDLFTTNTQIVDSSVMENLSVTIGKMGLTHPEVFSSGAFANDSNWNKWCLSVNALDDVEEKSSAYMGFLKIINLTSTEVTMSNDTIHKIVTGLSSNVEANVFAQEIYTFLMNHSAQISAINFTPDEISFLQQFTS

- Variants of: B1
- test_name: ITC
- recorded_conditions: with Kap104p [yeast (S. cerevisiae)]
assay_readout: screen value (kcal/mol)

mutation_notation: chain 1 R32A
assay_readout: screen value
observed_measurement: -12.7
//
mutation_notation: chain 1 R19A Y36A
assay_readout: screen value
observed_measurement: -11.9
//
mutation_notation: chain 1 R19K R20K R23K R26K
assay_readout: screen value
observed_measurement: -12.8
//
mutation_notation: chain 1 R31A
assay_readout: screen value
observed_measurement: -11.7
//
mutation_notation: chain 1 Y36L
assay_readout: screen value
observed_measurement: -10.9
